# Test system: BT-549 breast
# ASSAY_NOTES: NCI-60 one-dose screen, 48 h (100 = growth as untreated, 0 = no growth, -100 = all killed)
# RUN_PARAMETERS: 10 µM unless noted
# Experimental: Growth inhibition of the BT-549 human tumor cell line is measured as a screen for anti-cancer activity. Cells are grown in 96 well plates and exposed to the test compound for 48 hours. Compounds are tested at a single concentration, which is 10^-5 M for most compounds. The reported endpoint is percent growth (GI% or GIPRCNT), where numbers from 0 - 100% represent growth inhibition, and numbers from -100% - 0 represent cell death. For example, a value of 40 represents 60% growth inhibition. […]
This is part of a sample that, as a whole, favours compounds with a hit. Of some 83,000 tested, about 20% had one in any assay. The source made the active and inactive calls. Rule for the calls: active = growth percent below 10; inactive = the rest.
ATTRIBUTE_MEASURED: growth

[[record]]
compound = "CCNC(=O)N1CCc2cc(OC)c(OCCc3ccc(OC)nc3)cc2C1c1ccc(OC)cc1C (centres undefined)"
study_system = "BT-549 breast"
attribute_measured = "growth"
result = "29.2% (inactive)"

[[record]]
compound = "COc1ccccc1-n1cc(C#N)c(N)c1C(=O)c1ccc(C)cc1"
study_system = "BT-549 breast"
attribute_measured = "growth"
result = "83.9% (inactive)"

[[record]]
compound = "O=C(CN1CCN(c2cc(=O)[nH]c3ccc(F)cc23)CC1)Nc1ccc(Cl)cc1"
study_system = "BT-549 breast"
attribute_measured = "growth"
result = "47.6% (inactive)"

[[record]]
compound = "CCCCCc1ccc(S(=O)(=O)Nc2cccc(-c3csc(NCCN4CCN(C)CC4)n3)c2)cc1"
study_system = "BT-549 breast"
attribute_measured = "growth"
result = "95.1% (inactive)"

[[record]]
compound = "CC1(C)CC[C@]2(C(=O)O)CC[C@]3(C)C(=CC[C@@H]4[C@@]5(C)CC/C(=N\\OCCC#N)C(C)(C)[C@@H]5CC[C@]43C)[C@@H]2C1"
study_system = "BT-549 breast"
attribute_measured = "growth"
result = "106% (inactive)"

[[record]]
compound = "NC(N)=Nc1ccc(Oc2ccc(Nc3ccc(Cl)c(C(F)(F)F)c3)cc2)cc1"
study_system = "BT-549 breast"
attribute_measured = "growth"
result = "86.1% (inactive)"

[[record]]
compound = "N/C(=N\\C(N)=N\\c1nc2ccccc2s1)c1ccc(C(F)(F)F)cc1"
study_system = "BT-549 breast"
attribute_measured = "growth"
result = "101% (inactive)"

[[record]]
compound = "COc1cc(Nc2c(C#N)cnn3cc(-c4cnn(CC(C)(C)O)c4)cc23)ccc1Cl"
study_system = "BT-549 breast"
attribute_measured = "growth"
result = "85.5% (inactive)"

[[record]]
compound = "COc1ccc(Cn2cc3c(c2-c2cc(OC)c(OC)c(OC)c2)CCc2c(CN4CCOCC4)noc2-3)cc1"
study_system = "BT-549 breast"
attribute_measured = "growth"
result = "76.8% (inactive)"

